- test.method.notes: Clearance in Sprague-Dawley rat at 2.5 mg/kg, iv after 0.25 to 24 hrs by LC/MS/MS method
- Assay type: ADME, organism-based
- stated.conditions: in vivo
measure: clearance (mL/min/kg)

compound.smiles: CCC[C@@H]1C[C@H](N(C)C(C)C)CC[C@@H]1N1CC[C@H](Nc2ncnc3ccc(C(F)(F)F)cc23)C1=O
readout.number: 40

* * *

- test.method.notes: Oral bioavailability in cynomolgus monkey at 1.4 mg/kg after 0.25 to 24 hrs by LC/MS/MS method
- Type: ADME, organism-based, Macaca fascicularis
- stated.conditions: in vivo

compound.smiles: CCC[C@@H]1C[C@H](N(C)C(C)C)CC[C@@H]1N1CC[C@H](Nc2ncnc3ccc(C(F)(F)F)cc23)C1=O
bioavailability (%): 46

* * *

The entries below are paired with their reported Drug metabolism.
- Tested on: Liver microsome
- stated.conditions: rat, microsomes
- Description: Drug metabolism in rat liver microsomes

compound.smiles: CC(C)N(C)[C@@H]1CC[C@H](NC(=O)CNC(=O)c2cccc(C(F)(F)F)c2)[C@H](CS(=O)(=O)c2ccccc2)C1
Drug metabolism: 0.16 nmol/min/mg
//
compound.smiles: CC(C)N(C)[C@@H]1CC[C@H](NC(=O)CNC(=O)c2cccc(C(F)(F)F)c2)[C@H](COc2ccccc2)C1
Drug metabolism: 0.29 nmol/min/mg
//
compound.smiles: COC[C@@H]1C[C@H](N(C)C(C)C)CC[C@@H]1NC(=O)CNC(=O)c1cccc(C(F)(F)F)c1
Drug metabolism: 0.01 nmol/min/mg
//
compound.smiles: CCCC[C@@H]1C[C@H](N(C)C(C)C)CC[C@@H]1NC(=O)CNC(=O)c1cccc(C(F)(F)F)c1
Drug metabolism: 0.17 nmol/min/mg

* * *

- test.method.notes: Oral bioavailability in Sprague-Dawley rat at 25 mg/kg after 0.25 to 24 hrs by LC/MS/MS method
- Format: ADME, organism-based
- stated.conditions: in vivo

compound.smiles: CCC[C@@H]1C[C@H](N(C)C(C)C)CC[C@@H]1N1CC[C@H](Nc2ncnc3ccc(C(F)(F)F)cc23)C1=O
bioavailability (%): 68
